Source of measurements: PubChem BioAssay AID1963846

test system: 454973-116-R2-J3-PDC complex spheroid viability; experiment: Anticancer human tumor 454973-116-R2-J3-PDC patient-derived pancreatic carcinoma cell line growth inhibition [POLQ]; conditions: second compound 0.1 µM; first compound 0.00316 µM; hits give low values;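 also: spheroids exposed to drugs for seven days before measurement; percent viability relative to DMSO vehicle control wells taken as 100%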
Assignment: determine reported viability, T/C for the given molecules.
Please respond with the number in % and leave the unit unwritten.

Task: Form field: reported viability, T/C of CCc1c2c(nc3ccc(O)cc13)-c1cc3c(c(=O)n1C2)COC(=O)[C@]3(O)CC + Nc1ccc(C#CCN(C(=O)Cc2ncc(C(F)(F)F)cc2C(F)(F)F)c2ccc(F)cc2)nn1
Result: 19

Task: Form field: reported viability, T/C of C=CCn1c(=O)c2cnc(Nc3ccc(N4CCN(C)CC4)cc3)nc2n1-c1cccc(C(C)(C)O)n1 + Cc1cccc(N(C)C(=O)C2C(O)CCN2c2nc(C)cc(C(F)(F)F)c2C#N)c1
Result: 98

Task: Form field: reported viability, T/C of C=CCn1c(=O)c2cnc(Nc3ccc(N4CCN(C)CC4)cc3)nc2n1-c1cccc(C(C)(C)O)n1 + Nc1ccc(C#CCN(C(=O)Cc2ncc(C(F)(F)F)cc2C(F)(F)F)c2ccc(F)cc2)nn1
Result: 106

Task: Form field: reported viability, T/C of Cn1ncnc1[C@H]1c2n[nH]c(=O)c3cc(F)cc(c23)N[C@@H]1c1ccc(F)cc1 + Nc1ccc(C#CCN(C(=O)Cc2ncc(C(F)(F)F)cc2C(F)(F)F)c2ccc(F)cc2)nn1
Result: 96.7

Task: Form field: reported viability, T/C of Cn1ncnc1[C@H]1c2n[nH]c(=O)c3cc(F)cc(c23)N[C@@H]1c1ccc(F)cc1 + Cc1cccc(N(C)C(=O)C2C(O)CCN2c2nc(C)cc(C(F)(F)F)c2C#N)c1
Result: 95.6

Task: Form field: reported viability, T/C of CC[C@@]1(O)C(=O)OCc2c1cc1n(c2=O)Cc2cc3c(CN(C)C)c(O)ccc3nc2-1 + COC1C(OC(N)=O)C(O)C(Oc2ccc3c(O)c(NC(=O)c4ccc(O)c(CC=C(C)C)c4)c(=O)oc3c2C)OC1(C)C
Result: 103

Task: Form field: reported viability, T/C of CCc1c2c(nc3ccc(O)cc13)-c1cc3c(c(=O)n1C2)COC(=O)[C@]3(O)CC + Cc1cccc(N(C)C(=O)C2C(O)CCN2c2nc(C)cc(C(F)(F)F)c2C#N)c1
Result: 31.1

Task: Form field: reported viability, T/C of COc1cccc(OCCCN)c1-c1cc(Nc2cnc(C#N)cn2)n[nH]1 + COC1C(OC(N)=O)C(O)C(Oc2ccc3c(O)c(NC(=O)c4ccc(O)c(CC=C(C)C)c4)c(=O)oc3c2C)OC1(C)C
Result: 103

Task: Form field: reported viability, T/C of C=CCn1c(=O)c2cnc(Nc3ccc(N4CCN(C)CC4)cc3)nc2n1-c1cccc(C(C)(C)O)n1 + COC1C(OC(N)=O)C(O)C(Oc2ccc3c(O)c(NC(=O)c4ccc(O)c(CC=C(C)C)c4)c(=O)oc3c2C)OC1(C)C
Result: 99.7

Task: Form field: reported viability, T/C of CC[C@@]1(O)C(=O)OCc2c1cc1n(c2=O)Cc2cc3c(CN(C)C)c(O)ccc3nc2-1 + Nc1ccc(C#CCN(C(=O)Cc2ncc(C(F)(F)F)cc2C(F)(F)F)c2ccc(F)cc2)nn1
Result: 97.3
